# assay.name: Cytotoxicity in MDCK cells by the MTT assay
# reported.conditions: dog
For each of the compounds below, state its viability at 500 µg/mL.
Write down the numeric answer in % and omit the unit.

Looking up C[C@@H]1O[C@@H](OC[C@H]2O[C@@H](Oc3c(-c4ccc(O)c(O)c4)oc4cc(O)cc(O)c4c3=O)[C@H](O[C@@H]3OCC(O)(CO)[C@H]3O)[C@@H](O)[C@@H]2O)[C@H](O)[C@H](O)[C@H]1O (some centres unmarked) , I see its viability at 500 µg/mL listed as 82.9

// C[C@@H]1O[C@@H](OC[C@H]2O[C@@H](Oc3c(-c4ccc(O)cc4)oc4cc(O)cc(O)c4c3=O)[C@H](O[C@@H]3OCC(O)(CO)[C@H]3O)[C@@H](O)[C@@H]2O)[C@H](O)[C@H](O)[C@H]1O (some centres unmarked) : viability at 500 µg/mL value = 86.4

----------
Would you mind telling me the reported Virucidal Activity Log Reduction of each entry?
# Test system: influenza A virus H1N1
# assay.name: Virucidal activity, ASTM E1053-20 method
# Type: cell-based
# reported.conditions: 62.5 µg/mL, 10 min exposure
Value and unit, in that order.

Notebook: C[C@@H]1O[C@@H](OC[C@H]2O[C@@H](Oc3c(-c4ccc(O)cc4)oc4cc(O)cc(O)c4c3=O)[C@H](O)[C@@H](O)[C@H]2O)[C@H](O)[C@H](O)[C@H]1O , Virucidal Activity Log Reduction read as 1.91 ± 0.062 Log

Notebook: C[C@@H]1O[C@@H](OC[C@H]2O[C@@H](Oc3c(-c4ccc(O)c(O)c4)oc4cc(O)cc(O)c4c3=O)[C@H](O[C@@H]3OCC(O)(CO)[C@H]3O)[C@@H](O)[C@@H]2O)[C@H](O)[C@H](O)[C@H]1O (some centres unmarked) , Virucidal Activity Log Reduction read as 1.90 ± 0.062 Log

Entry C[C@@H]1O[C@@H](OC[C@H]2O[C@@H](Oc3c(-c4ccc(O)cc4)oc4cc(O)cc(O)c4c3=O)[C@H](O)[C@@H](O)[C@@H]2O)[C@H](O)[C@H](O)[C@H]1O [Compound 2, kaempferol 3-O-rutinoside] ; Virucidal Activity Log Reduction = 1.82 ± 0.091 Log

# molecule C[C@@H]1O[C@@H](OC[C@H]2O[C@@H](Oc3c(-c4ccc(O)c(O)c4)oc4cc(O)cc(O)c4c3=O)[C@H](O)[C@@H](O)[C@@H]2O)[C@H](O)[C@H](O)[C@H]1O ; its Virucidal Activity Log Reduction = 1.52 ± 0.045 Log

For record C[C@@H]1O[C@@H](OC[C@H]2O[C@@H](Oc3c(-c4ccc(O)cc4)oc4cc(O)cc(O)c4c3=O)[C@H](O[C@@H]3OCC(O)(CO)[C@H]3O)[C@@H](O)[C@@H]2O)[C@H](O)[C@H](O)[C@H]1O (some centres unmarked) the listed Virucidal Activity Log Reduction is 1.93 ± 0.124 Log

----------
# assay.name: Cytotoxicity in MDCK cells by the MTT assay
# reported.conditions: dog
# rule met = viability at 31.3 µg/mL below 90% (exclusive); rule not met = viability at 31.3 µg/mL at/above 90%

IN: In the record for C[C@@H]1O[C@@H](OC[C@H]2O[C@@H](Oc3c(-c4ccc(O)c(O)c4)oc4cc(O)cc(O)c4c3=O)[C@H](O)[C@@H](O)[C@@H]2O)[C@H](O)[C@H](O)[C@H]1O , is viability at 31.3 µg/mL less than 90%?
OUT: rule met

IN: Strictly below 90% in viability at 31.3 µg/mL? C[C@@H]1O[C@@H](OC[C@H]2O[C@@H](Oc3c(-c4ccc(O)c(O)c4)oc4cc(O)cc(O)c4c3=O)[C@H](O[C@@H]3OCC(O)(CO)[C@H]3O)[C@@H](O)[C@@H]2O)[C@H](O)[C@H](O)[C@H]1O (some centres unmarked)
OUT: rule not met

IN: Take the compound C[C@@H]1O[C@@H](OC[C@H]2O[C@@H](Oc3c(-c4ccc(O)cc4)oc4cc(O)cc(O)c4c3=O)[C@H](O[C@@H]3OCC(O)(CO)[C@H]3O)[C@@H](O)[C@@H]2O)[C@H](O)[C@H](O)[C@H]1O (some centres unmarked) and say whether its viability at 31.3 µg/mL is less than 90%.
OUT: rule not met
